Target: FLT3-ITD (Homo sapiens)
Test: ADP Glo kinase assay, FLT3-ITD
Format: biochemical
Details: Km ATP 100 μM, read-out: Enzymatic inhibition, Ki, FLT3-ITD
pKi: −log10 of the molar value.
parameter: pKi

| record.smiles | parameter | observed |
| --- | --- | --- |
| CS(=O)(=O)N1CCN(c2ccc(Nc3nccc(-c4cnc5ccc(Br)cn45)n3)cn2)CC1 | pKi | 8.15 |
| O=C1NCCC12CCN(c1ccc(Nc3nccc(-c4cnc5ccc(-c6cnn(C(F)F)c6)cn45)n3)cn1)CC2 | pKi | 6.94 |
| c1ccc(-c2ccc3ncc(-c4ccnc(Nc5ccc(NC6CCOCC6)nc5)n4)n3c2)cc1 | pKi | 6.85 |
| O=C(c1ccco1)N1CCN(c2ccc(Nc3nccc(-c4cnc5ccc(Br)cn45)n3)cn2)CC1 | pKi | 6.73 |
